# Tested on: Enterobacteria phage lambda
# Assay text: Induction of Lambda phage supercoiled circular pBluescript KS II DNA cleavage assessed as single-stranded nick formation at 1 uM preincubated for 30 mins followed by UV light irradiation under aerobic condition measured after 15 mins by agarose gel electrophoresis
Measured Activity values are reported for all entries that follow.

{"Line notation": "O=C(O/N=C/c1ccncc1)c1ccc([N+](=O)[O-])cc1", "Activity": "28%"}
{"Line notation": "NC(=NOC(=O)c1ccc([N+](=O)[O-])cc1)c1cccnc1", "Activity": "56%"}
{"Line notation": "N/C(=N\\OC(=O)c1ccc([N+](=O)[O-])cc1)c1ccncc1", "Activity": "25%"}
{"Line notation": "NC(=NOC(=O)c1ccc([N+](=O)[O-])cc1)c1ccccn1", "Activity": "70%"}
{"Line notation": "O=C(O/N=C/c1cccnc1)c1ccc([N+](=O)[O-])cc1", "Activity": "59%"}

q: Hello, please tell me recorded Activity for this one: O=C(O/N=C/c1ccccn1)c1ccc([N+](=O)[O-])cc1
a: 46%
